- tested-system: SHP2-C SH2
- assay-overview: SH2 binding enrichment of the phosphorylated peptide, bacterial display (enrichment ratio); higher = better substrate or ligand; peptides without Tyr show the background
Reported SH2 binding enrichment values follow for various sequences

[
  {
    "biopolymer-sequence": "KKKKQYKGKYL [CASK_Y708_D710G]",
    "SH2 binding enrichment": 0.302
  }
]

Lookup: Request - read-out SH2 binding enrichment | tested on SHP2-C SH2 | sequence CLAKMYFSAVD [CP_Y539_YF]
Found: 0.608

Lookup: Request - read-out SH2 binding enrichment | tested on SHP2-C SH2 | sequence HDHYGYRQSVT [CD55_Y245_R240H]
Found: 0.833

Lookup: Request - read-out SH2 binding enrichment | tested on SHP2-C SH2 | sequence RVILRYVNPGN [LAMA3_Y791_T796N]
Found: 0.873

Lookup: Request - read-out SH2 binding enrichment | tested on SHP2-C SH2 | sequence VATRWYWSPEL [CDKL5_Y177_R178W]
Found: 0.731

Lookup: Request - read-out SH2 binding enrichment | tested on SHP2-C SH2 | sequence ISIFHCAKGQP [MPZ_Y82_Y82C]
Found: 0.521

Lookup: Request - read-out SH2 binding enrichment | tested on SHP2-C SH2 | sequence TYEPNYGTVKQ [RAPGEF6_Y1447]
Found: 0.696

Lookup: Request - read-out SH2 binding enrichment | tested on SHP2-C SH2 | sequence YIIFIYAMKKK [SLCO1B1_Y645_L643F]
Found: 1.68

Lookup: Request - read-out SH2 binding enrichment | tested on SHP2-C SH2 | sequence SRNKPYISWPS [CDC42BPB_Y1638]
Found: 1.51

Lookup: Request - read-out SH2 binding enrichment | tested on SHP2-C SH2 | sequence QFPDIYAREEV [CRX_Y67_V66I_YF]
Found: 0.9

Lookup: Request - read-out SH2 binding enrichment | tested on SHP2-C SH2 | sequence RDHFGYRQSVT [CD55_Y245_YF]
Found: 0.82

Lookup: Request - read-out SH2 binding enrichment | tested on SHP2-C SH2 | sequence LESILYESSVV [TRPV4_Y91_T89I]
Found: 0.732

Lookup: Request - read-out SH2 binding enrichment | tested on SHP2-C SH2 | sequence LSVEIHDRREF [ITGB7_Y753_Y753H_YF]
Found: 0.563

Lookup: Request - read-out SH2 binding enrichment | tested on SHP2-C SH2 | sequence MCITQYKRESQ [PRNP_Y218_E219K]
Found: 1.08

====

Reported SH2 binding enrichment values follow for various sequences
- tested-system: SHP2-C SH2;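 note: peptide library displayed on the E. coli surface as eCPX fusions, selected cells deep-sequenced, score is each peptide's frequency after selection divided by its frequency in the input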
- assay-overview: SH2 binding enrichment of the phosphorylated peptide, bacterial display (enrichment ratio); higher = better substrate or ligand; peptides without Tyr show the background
Note: the reply should be a number with no unit written.

Here's what some known entries look like.
[
  {
    "biopolymer-sequence": "DTSKMYIPHTD [EXPH5_Y782]",
    "result": 0.512
  },
  {
    "biopolymer-sequence": "QTSTDYDIRFF [CSNK2A1_Y131_L128S_YF]",
    "result": 0.864
  },
  {
    "biopolymer-sequence": "NFGTNYRVGSS [CPO_Y278_K273N_YF]",
    "result": 0.634
  },
  {
    "biopolymer-sequence": "DKATEYIQYVR [MAX_Y70_M74V]",
    "result": 1.27
  },
  {
    "biopolymer-sequence": "NIQKKYFRAIL [CHD7_Y1217_YF]",
    "result": 0.838
  },
  {
    "biopolymer-sequence": "LRAGVYPEKDQ [DNM2_Y626]",
    "result": 0.779
  },
  {
    "biopolymer-sequence": "DNEAIYDICRC [TUBA4A_Y210_R215C]",
    "result": 0.662
  },
  {
    "biopolymer-sequence": "SDYYAYSPVRE [H6PD_Y449]",
    "result": 1.48
  },
  {
    "biopolymer-sequence": "EQKKYYNAVKK [SCN5A_Y1495_M1498V]",
    "result": 1.01
  },
  {
    "biopolymer-sequence": "ARKRKYFKKHE [NFIX_Y40]",
    "result": 0.409
  }
]

Shifting focus to the sequence that follows.
Lookup: Which value of SH2 binding enrichment has been reported for EAESWYQTKYE [KRT75_Y342] in the records?
Found: 0.437
